Biological target: human MAO-B (Homo sapiens, UniProt P27338)
Construct: purchased Sigma Aldrich M7441
Sequence (P27338 1-520): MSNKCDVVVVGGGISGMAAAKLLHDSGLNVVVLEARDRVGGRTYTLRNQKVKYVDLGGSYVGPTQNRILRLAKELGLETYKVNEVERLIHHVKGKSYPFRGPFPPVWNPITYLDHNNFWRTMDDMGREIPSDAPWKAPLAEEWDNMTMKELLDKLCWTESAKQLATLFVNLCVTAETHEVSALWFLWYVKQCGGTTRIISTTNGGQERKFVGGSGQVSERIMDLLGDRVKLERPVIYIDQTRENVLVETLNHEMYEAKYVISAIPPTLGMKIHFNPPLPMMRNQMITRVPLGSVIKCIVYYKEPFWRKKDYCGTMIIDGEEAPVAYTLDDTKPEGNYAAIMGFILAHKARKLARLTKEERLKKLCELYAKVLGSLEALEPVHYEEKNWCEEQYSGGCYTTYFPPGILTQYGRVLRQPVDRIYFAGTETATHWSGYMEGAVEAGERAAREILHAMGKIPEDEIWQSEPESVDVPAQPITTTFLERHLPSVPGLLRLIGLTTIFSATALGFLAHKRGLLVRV
Assay: Amplex Red monoamine oxidase assay, MAO-B
Type: biochemical
Settings: human recombinant MAO-B; read-out: MAO-B IC50 ± SEM
Below, each entry is listed with its recorded pIC50.
Quick note: pIC50 means taking -log10 of the concentration in moles per liter.

# example entries with known answers
| Molecule | pIC50 |
| --- | --- |
| CCCCn1c(=O)c2c(nc(NCCc3ccc(O)c(O)c3)n2CCC)n(CCCC)c1=O | 7.09 |
| Cn1c(=O)c2c(nc(NCCc3ccc(O)c(O)c3)n2CCc2ccccc2)n(C)c1=O [Compound 11k] | 7.13 |
| CCCn1c(=O)c2c(nc3n2CCCN3CCc2ccc(O)c(O)c2)n(CCC)c1=O | 6.80 |
| CCCn1c(NCCc2ccc(O)c(O)c2)nc2c1c(=O)n(C)c(=O)n2C [Compound 11c] | 6.78 |
| CC(C)Cn1c(NCCc2ccc(O)c(O)c2)nc2c1c(=O)n(C)c(=O)n2C [Compound 11f] | 6.69 |
| CCCCCCn1c(NCCc2ccc(O)c(O)c2)nc2c1c(=O)n(C)c(=O)n2C [Compound 11i] | 7.12 |
| Cn1c(=O)c2c(nc3n2CCCCN3CCc2ccc(O)c(O)c2)n(C)c1=O [Compound 20b] | 7.00 |

Please examine the following record next.
Which pIC50 value belongs to Cn1c(=O)c2c(nc(NCCc3ccc(O)c(O)c3)n2C)n(C)c1=O [Compound 11a] ?
7.29

---

target: human D2L receptor (Homo sapiens, UniProt P14416); assay: Radioligand binding [3H]-raclopride, HEK293 membranes; settings: HEK293 cells, human D2; read-out: hD2 [3H]-Raclopride Ki ± SEM
Sequence (P14416 whole entry): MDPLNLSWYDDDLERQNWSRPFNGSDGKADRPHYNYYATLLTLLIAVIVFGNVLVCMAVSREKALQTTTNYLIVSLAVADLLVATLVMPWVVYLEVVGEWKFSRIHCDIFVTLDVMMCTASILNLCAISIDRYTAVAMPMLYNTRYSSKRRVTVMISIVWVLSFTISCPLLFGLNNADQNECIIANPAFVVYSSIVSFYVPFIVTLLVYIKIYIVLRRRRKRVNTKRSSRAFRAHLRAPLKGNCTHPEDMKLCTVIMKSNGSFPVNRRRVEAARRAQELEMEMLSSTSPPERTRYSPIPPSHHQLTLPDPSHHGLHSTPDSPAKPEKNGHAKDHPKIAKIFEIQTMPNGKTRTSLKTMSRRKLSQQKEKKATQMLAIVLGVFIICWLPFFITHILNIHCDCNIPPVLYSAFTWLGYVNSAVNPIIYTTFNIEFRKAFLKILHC
Assay Metric: pKi
Quick note: pKi means taking -log10 of the concentration in moles per liter.

# example entries with known answers
| Compound | Tgt | Assay Metric | Reading |
| --- | --- | --- | --- |
| Cn1c(=O)c2c(nc(NCCc3ccc(O)c(O)c3)n2Cc2ccccc2)n(C)c1=O [Compound 11j] | human D2L receptor (Homo sapiens, UniProt P14416) | pKi | 5.04 |
| CCCn1c(=O)c2c(nc(NCCc3ccc(O)c(O)c3)n2CCC)n(CCC)c1=O | human D2L receptor (Homo sapiens, UniProt P14416) | pKi | 4.88 |

Which pKi value belongs to `CCCn1c(=O)c2c(nc3n2CCCN3CCc2ccc(O)c(O)c2)n(CCC)c1=O` ?
4.90

Which pKi value belongs to Cn1c(=O)c2c(nc(NCCc3ccc(O)c(O)c3)n2CCc2ccccc2)n(C)c1=O [Compound 11k] ?
5.00
